Target: SIRT1 (Homo sapiens, UniProt Q96EB6)
Construct: His-tag (N); made in house; host or cells: E. coli BL21(DE3), T7-promoter vector
Sequence (Q96EB6 1-747): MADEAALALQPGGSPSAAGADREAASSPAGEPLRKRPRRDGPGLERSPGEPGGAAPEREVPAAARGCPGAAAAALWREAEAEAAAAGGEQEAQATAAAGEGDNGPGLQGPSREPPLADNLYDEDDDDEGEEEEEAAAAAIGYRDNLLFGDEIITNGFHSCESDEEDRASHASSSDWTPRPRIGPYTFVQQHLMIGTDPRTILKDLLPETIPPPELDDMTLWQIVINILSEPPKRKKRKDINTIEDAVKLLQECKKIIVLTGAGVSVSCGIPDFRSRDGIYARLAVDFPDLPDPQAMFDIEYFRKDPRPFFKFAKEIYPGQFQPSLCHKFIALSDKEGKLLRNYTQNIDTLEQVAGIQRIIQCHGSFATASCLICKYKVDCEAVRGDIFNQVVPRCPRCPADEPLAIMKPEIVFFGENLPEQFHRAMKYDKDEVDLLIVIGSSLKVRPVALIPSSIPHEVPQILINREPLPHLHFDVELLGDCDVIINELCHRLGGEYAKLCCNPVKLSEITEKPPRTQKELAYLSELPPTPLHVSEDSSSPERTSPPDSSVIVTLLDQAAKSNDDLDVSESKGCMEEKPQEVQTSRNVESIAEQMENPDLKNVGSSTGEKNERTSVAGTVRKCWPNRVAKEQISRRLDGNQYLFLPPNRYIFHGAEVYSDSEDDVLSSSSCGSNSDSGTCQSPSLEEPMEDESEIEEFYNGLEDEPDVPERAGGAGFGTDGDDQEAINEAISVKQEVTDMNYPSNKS
Assay: Mass spectrometry based assay for modulators of SIRT1 activity (deacetylation of p53-based acetylated peptide)
Assay type: biochemical
Details: percent maximum fold activation of SIRT1
Item-by-item account of Emax

Illustrative cases are given below, each with its answer.
O=C(Nc1nccs1)c1nccn2cc(-c3cccc(C(F)(F)F)c3)nc12 [Compound 138] : < 200%
O=C(Nc1ccccn1)c1nccn2cc(-c3ccccc3C(F)(F)F)nc12 [Compound 172] : > 200%

O=C(Nc1cccc(CN2CCOCC2)n1)c1cccn2nc(-c3cccc(C(F)(F)F)c3)nc12 [Compound 178] yielded Emax of > 200%

Reported Emax of O=C(Nc1ccccn1)c1cccn2cc(-c3cccc(C(F)F)c3)nc12 [Compound 207] : < 200%

The reported numbers originate from patent US20110077248A1.
